Attribution: the NIST ThermoML archive (doi:10.1021/je060139a)

Test method notes: refractive index (Na D-line) (dimensionless); xn = mol fraction of the nth substance listed
Conditions: 308.15 K; 100.5 kPa; Liquid; Standard Abbe refractometry; x1 = 0.5
Measured refractive index accompanies every entry in the list below.
The response must contain the number and no unit.

// worked examples, refractive index included
[
  {
    "Molecule": "CCOC(=O)c1ccccc1O [ethyl 2-hydroxybenzoate] + CCO",
    "refractive index": 1.47139
  },
  {
    "Molecule": "CCC(=O)OCc1ccccc1 [benzyl propanoate] + CCO",
    "refractive index": 1.4553
  },
  {
    "Molecule": "CC(=O)OCc1ccccc1 [benzyl ethanoate] + CCO",
    "refractive index": 1.45571
  },
  {
    "Molecule": "CCOC(=O)CC(C)=O [ethyl 3-oxobutanoate] + CCO",
    "refractive index": 1.3949
  },
  {
    "Molecule": "CCOC(=O)CC(C)C [ethyl 3-methylbutanoate] + CCO",
    "refractive index": 1.37974
  }
]

q: Could you tell me which refractive index is on file for COC(=O)c1ccccc1 [methyl benzoate] + CCO ?
a: 1.4622

====

Test method notes: refractive index (Na D-line) (dimensionless); xn = mol fraction of the nth substance listed
Conditions: 318.15 K; 100.5 kPa; Liquid; Standard Abbe refractometry; x1 = 0.5
Numbers after ± are expanded uncertainties.
Endpoint: refractive index

[
  {
    "Compound": "CCOC(=O)CC(C)C [ethyl 3-methylbutanoate] + CCO",
    "refractive index": "1.37519 ± 0.00033"
  }
]

q: Could you tell me which refractive index is on file for CC(=O)OCc1ccccc1 [benzyl ethanoate] + CCO ?
a: 1.4511 ± 0.00032

q: Could you tell me which refractive index is on file for CCC(=O)OCc1ccccc1 [benzyl propanoate] + CCO ?
a: 1.45072 ± 0.00033

====

Measured surface tension liquid-gas accompanies every entry in the list below.
Test method notes: xn = mol fraction of the nth substance listed
Conditions: 288.15 K, Wilhelmy plate method, x1 = 0.9
Quick note: give the figure in mN/m, leave out the unit.

[
  {
    "Compound": "COC(=O)c1ccccc1 [methyl benzoate] + CCO",
    "Units text": "mN/m",
    "surface tension liquid-gas": 36.6
  },
  {
    "Compound": "CCOC(=O)CC(C)=O [ethyl 3-oxobutanoate] + CCO",
    "Units text": "mN/m",
    "surface tension liquid-gas": 32.47
  },
  {
    "Compound": "CC(=O)OCc1ccccc1 [benzyl ethanoate] + CCO",
    "Units text": "mN/m",
    "surface tension liquid-gas": 36.1
  },
  {
    "Compound": "CCC(=O)OCc1ccccc1 [benzyl propanoate] + CCO",
    "Units text": "mN/m",
    "surface tension liquid-gas": 34.5
  },
  {
    "Compound": "CCOC(=O)CC(C)C [ethyl 3-methylbutanoate] + CCO",
    "Units text": "mN/m",
    "surface tension liquid-gas": 24.3
  }
]

Let us move to another entry and its surface tension liquid-gas.
q: Could you tell me which surface tension liquid-gas is on file for CCOC(=O)c1ccccc1O [ethyl 2-hydroxybenzoate] + CCO ?
a: 35.4

====

Measured surface tension liquid-gas accompanies every entry in the list below.
Test method notes: xn = mol fraction of the nth substance listed
Conditions: 308.15 K, Wilhelmy plate method, x1 = 0.35
Quick note: give the figure in mN/m, leave out the unit.

// worked examples, surface tension liquid-gas included
[
  {
    "Molecule": "CC(=O)OCc1ccccc1 [benzyl ethanoate] + CCO",
    "surface tension liquid-gas (mN/m)": 26.07
  },
  {
    "Molecule": "CCOC(=O)CC(C)=O [ethyl 3-oxobutanoate] + CCO",
    "surface tension liquid-gas (mN/m)": 24.84
  }
]

Let us move to another entry and its surface tension liquid-gas.
q: Could you tell me which surface tension liquid-gas is on file for CCOC(=O)c1ccccc1O [ethyl 2-hydroxybenzoate] + CCO ?
a: 25.62

====

Test method notes: xn = mol fraction of the nth substance listed
Conditions: 288.15 K, Wilhelmy plate method, x1 = 0.1
Measured surface tension liquid-gas accompanies every entry in the list below.
Quick note: give the figure in mN/m, leave out the unit.

// worked examples, surface tension liquid-gas included
[
  {
    "Compound": "COC(=O)c1ccccc1 [methyl benzoate] + CCO",
    "Endpoint": "surface tension liquid-gas",
    "Reported value": 24.63
  },
  {
    "Compound": "CCC(=O)OCc1ccccc1 [benzyl propanoate] + CCO",
    "Endpoint": "surface tension liquid-gas",
    "Reported value": 24.8
  }
]

q: Could you tell me which surface tension liquid-gas is on file for CCOC(=O)c1ccccc1O [ethyl 2-hydroxybenzoate] + CCO ?
a: 24.8

q: Could you tell me which surface tension liquid-gas is on file for CCOC(=O)CC(C)C [ethyl 3-methylbutanoate] + CCO ?
a: 23.26

q: Could you tell me which surface tension liquid-gas is on file for CCOC(=O)CC(C)=O [ethyl 3-oxobutanoate] + CCO ?
a: 24.1

q: Could you tell me which surface tension liquid-gas is on file for CC(=O)OCc1ccccc1 [benzyl ethanoate] + CCO ?
a: 24.8

====

Test method notes: xn = mol fraction of the nth substance listed
Conditions: 308.15 K, Wilhelmy plate method, x1 = 0.8
Endpoint: surface tension liquid-gas (mN/m)
Quick note: give the figure in mN/m, leave out the unit.

// worked examples, surface tension liquid-gas included
[
  {
    "Compound": "CCOC(=O)CC(C)C [ethyl 3-methylbutanoate] + CCO",
    "surface tension liquid-gas (mN/m)": 22.27
  },
  {
    "Compound": "COC(=O)c1ccccc1 [methyl benzoate] + CCO",
    "surface tension liquid-gas (mN/m)": 32
  },
  {
    "Compound": "CCOC(=O)CC(C)=O [ethyl 3-oxobutanoate] + CCO",
    "surface tension liquid-gas (mN/m)": 29.36
  }
]

q: Could you tell me which surface tension liquid-gas is on file for CCOC(=O)c1ccccc1O [ethyl 2-hydroxybenzoate] + CCO ?
a: 31.13

q: Could you tell me which surface tension liquid-gas is on file for CC(=O)OCc1ccccc1 [benzyl ethanoate] + CCO ?
a: 31.93

q: Could you tell me which surface tension liquid-gas is on file for CCC(=O)OCc1ccccc1 [benzyl propanoate] + CCO ?
a: 30.55

====

Test method notes: xn = mol fraction of the nth substance listed
Conditions: 318.15 K, Wilhelmy plate method, x1 = 0.15
Measured surface tension liquid-gas accompanies every entry in the list below.
Quick note: give the figure in mN/m, leave out the unit.

// worked examples, surface tension liquid-gas included
[
  {
    "Compound": "COC(=O)c1ccccc1 [methyl benzoate] + CCO",
    "surface tension liquid-gas / mN/m": 22.6
  },
  {
    "Compound": "CCOC(=O)c1ccccc1O [ethyl 2-hydroxybenzoate] + CCO",
    "surface tension liquid-gas / mN/m": 22.57
  },
  {
    "Compound": "CC(=O)OCc1ccccc1 [benzyl ethanoate] + CCO",
    "surface tension liquid-gas / mN/m": 22.6
  },
  {
    "Compound": "CCC(=O)OCc1ccccc1 [benzyl propanoate] + CCO",
    "surface tension liquid-gas / mN/m": 22.7
  },
  {
    "Compound": "CCOC(=O)CC(C)C [ethyl 3-methylbutanoate] + CCO",
    "surface tension liquid-gas / mN/m": 20.78
  }
]

Let us move to another entry and its surface tension liquid-gas.
q: Could you tell me which surface tension liquid-gas is on file for CCOC(=O)CC(C)=O [ethyl 3-oxobutanoate] + CCO ?
a: 21.94

====

Measured refractive index accompanies every entry in the list below.
Test method notes: refractive index (Na D-line) (dimensionless); xn = mol fraction of the nth substance listed
Conditions: 288.15 K; 100.5 kPa; Liquid; Standard Abbe refractometry; x1 = 0.55
The response must contain the number and no unit.

// worked examples, refractive index included
[
  {
    "Compound": "CCOC(=O)CC(C)C [ethyl 3-methylbutanoate] + CCO",
    "refractive index": 1.39028
  },
  {
    "Compound": "CCOC(=O)c1ccccc1O [ethyl 2-hydroxybenzoate] + CCO",
    "refractive index": 1.4867
  },
  {
    "Compound": "CC(=O)OCc1ccccc1 [benzyl ethanoate] + CCO",
    "refractive index": 1.4702
  },
  {
    "Compound": "COC(=O)c1ccccc1 [methyl benzoate] + CCO",
    "refractive index": 1.47785
  },
  {
    "Compound": "CCOC(=O)CC(C)=O [ethyl 3-oxobutanoate] + CCO",
    "refractive index": 1.4058
  }
]

Let us move to another entry and its refractive index.
q: Could you tell me which refractive index is on file for CCC(=O)OCc1ccccc1 [benzyl propanoate] + CCO ?
a: 1.46918

====

Test method notes: refractive index (Na D-line) (dimensionless); xn = mol fraction of the nth substance listed
Conditions: 298.18 K; 100.5 kPa; Liquid; Standard Abbe refractometry; x1 = 0.2
Measured refractive index accompanies every entry in the list below.
The response must contain the number and no unit.

// worked examples, refractive index included
[
  {
    "Molecule": "CCOC(=O)CC(C)=O [ethyl 3-oxobutanoate] + CCO",
    "Reported value": 1.3801
  },
  {
    "Molecule": "CCOC(=O)c1ccccc1O [ethyl 2-hydroxybenzoate] + CCO",
    "Reported value": 1.42347
  },
  {
    "Molecule": "CCOC(=O)CC(C)C [ethyl 3-methylbutanoate] + CCO",
    "Reported value": 1.37312
  },
  {
    "Molecule": "CCC(=O)OCc1ccccc1 [benzyl propanoate] + CCO",
    "Reported value": 1.41559
  },
  {
    "Molecule": "CC(=O)OCc1ccccc1 [benzyl ethanoate] + CCO",
    "Reported value": 1.41395
  }
]

q: Could you tell me which refractive index is on file for COC(=O)c1ccccc1 [methyl benzoate] + CCO ?
a: 1.41549
